# Test system: subtilisin
# Assay: Subtilisin treatment (resistance against proteolytic degradation)
# Type: in vitro ADME
# Parameters: key: S: stable; PU: partially unstable
# Condition description: 500 ng/μL subtilisin, 30 min, room temperature
Assay readout: Stability (Subtilisin assay)

- Molecule: "W100A (protein, left off: 6x His (two), N-terminal, state not stated) KAPKTQPYNPCKPQEVIDTKCMGPKDCLYPNPDSCTTYIQCVPLDEVGNAKPVVKPCPKGLQWNDNVGKKACDYPNLSTCPVKTPQ"
  Result: "S"
- Molecule: "Q69N (protein, left off: 6x His (two), N-terminal, state not stated) KAPKTQPYNPCKPQEVIDTKCMGPKDCLYPNPDSCTTYINCVPLDEVGNAKPVVKPCPKGLQWNDNVGKKWCDYPNLSTCPVKTPQ"
  Result: "PU"
